System: BDF1 mice, P388 leukemia ip, median survival T/C
procedure-details: NCI In Vivo Anticancer Drug Screen. Data for tumor model P388 Leukemia (intraperitoneal) in B6D2F1 (BDF1) mice
study-conditions: endpoint: median survival time; dose: 100.0 mg/kg/injection; schedule: Q01DX009 (ip); vehicle: Klucel (hydroxypropylcellulose) (HPC); higher = longer survival
Toxic doses and inconclusive results are not listed.
Below, each entry is listed with its recorded T/C.

Field: example entries. Status: answers known.
CC[C@H](CC[C@@H](C)[C@H]1CC[C@H]2[C@@H]3CC=C4C[C@@H](OC(=O)CN5CCNCC5)CC[C@]4(C)[C@H]3CC[C@]12C)C(C)C: 104 % of control
Cc1cccc(-c2nc3cc(Cl)ccc3c(=O)o2)c1: 109 % of control

Query :: Please list T/C recorded for the compound CC1(C#N)c2ccccc2C=CN1C(=O)c1ccccc1 (configuration not stated)
Result :: 90 % of control

Query :: Please list T/C recorded for the compound COc1ccc(CCC(C(=O)O)c2ccc(OC)c(OC)c2)cc1OC (configuration not stated)
Result :: 95 % of control

Query :: Please list T/C recorded for the compound CCCCCCC(=O)CCCC(C)CCCC(C)C (configuration not stated)
Result :: 100 % of control

Query :: Please list T/C recorded for the compound `N#CC1(c2ccc(Cl)cc2)CC1`
Result :: 95 % of control

----------
System: BDF1 mice, P388 leukemia ip, median survival T/C
procedure-details: NCI In Vivo Anticancer Drug Screen. Data for tumor model P388 Leukemia (intraperitoneal) in B6D2F1 (BDF1) mice
study-conditions: endpoint: median survival time; dose: 400.0 mg/kg/injection; schedule: Q01DX009 (ip); vehicle: water; higher = longer survival
Inconclusive results and toxic doses are left out.
endpoint: T/C

Field: example entries. Status: answers known.
CC(O)(c1ccc(Cl)cc1)C(c1ccccc1)c1ccccn1 (centres undefined): 99 % of control
CCOC(=O)CSc1c([N+](=O)[O-])c(C)nn1C: 101 % of control
O=C(c1ccccc1)c1c(-c2ccccc2)c(C(=O)c2ccccc2)c2ccccc2c1Cl: 102 % of control

Query :: Please list T/C recorded for the compound C#CC1(OCC(O)CO)CCCCC1 (centres undefined)
Result :: 118 % of control

----------
Below, each entry is listed with its recorded T/C.
Tested on: BDF1 mice, P388 leukemia ip, median survival T/C
procedure-details: NCI In Vivo Anticancer Drug Screen. Data for tumor model P388 Leukemia (intraperitoneal) in B6D2F1 (BDF1) mice
study-conditions: endpoint: median survival time; dose: 100.0 mg/kg/injection; schedule: Q04DX003 (ip); vehicle: saline; higher = longer survival
Inconclusive results and toxic doses are left out.

O=C(/C=C/c1ccccc1)N1CCOCC1: 95 % of control

Query :: Please list T/C recorded for the compound `CCN(CC)C(=O)Cn1cc(F)c(NC(C)=O)nc1=O`
Result :: 95 % of control

Query :: Please list T/C recorded for the compound `O=Cc1c[nH]c2nccnc12`
Result :: 100 % of control

Query :: Please list T/C recorded for the compound COc1ccc(OC(=O)N2C=Cc3ccccc3C2C#N)cc1 (configuration not stated)
Result :: 100 % of control

Query :: Please list T/C recorded for the compound `O=C1CCCN1`
Result :: 87 % of control

Query :: Please list T/C recorded for the compound `CN(C)C(=S)N(C)C`
Result :: 100 % of control

Query :: Please list T/C recorded for the compound `CN(CCCN(C)N=Nc1ccccc1C(=O)O)N=Nc1ccccc1C(=O)O`
Result :: 92 % of control

Query :: Please list T/C recorded for the compound `NC(N)=NCCCCCC(=O)O`
Result :: 104 % of control

Query :: Please list T/C recorded for the compound `O=S(=O)(O)c1cccc2cccc(Cl)c12`
Result :: 100 % of control

----------
Tested on: BDF1 mice, P388 leukemia ip, median survival T/C
procedure-details: NCI In Vivo Anticancer Drug Screen. Data for tumor model P388 Leukemia (intraperitoneal) in B6D2F1 (BDF1) mice
study-conditions: endpoint: median survival time; dose: 200.0 mg/kg/injection; schedule: Q01DX001 (ip); vehicle: saline with Tween-80; higher = longer survival
Toxic doses and inconclusive results are not listed.
Below, each entry is listed with its recorded T/C.

Field: example entries. Status: answers known.
O=C(Nc1ccc(Cl)cc1)O/N=C/c1ccccn1: 104 % of control
c1cc(Sc2cccc3nncn23)n2cnnc2c1: 97 % of control
O=C(Cl)c1cc2ccccc2o1: 108 % of control
Cc1ccc(S(=O)(=O)OCC(C)(C)NC(=O)c2ccc([N+](=O)[O-])cc2)cc1: 110 % of control
COc1ccc(NC(=O)Nc2ccccc2F)cc1: 95 % of control
O=[N+]([O-])c1ccc(N2[C@@H]3C4CCC([C@@H]32)C42OCCO2)cc1: 93 % of control

Query :: Report measured T/C on BDF1 mice, P388 leukemia ip, median survival T/C; entry: `Nc1ncnc2nc(-c3ccc(Br)cc3)[nH]c12`
Result :: 106 % of control

Query :: Report measured T/C on BDF1 mice, P388 leukemia ip, median survival T/C; entry: CC(C)CNC(c1ccc2c(c1)OCO2)C(O)c1ccc2c(c1)OCO2 (centres undefined)
Result :: 115 % of control

Query :: Report measured T/C on BDF1 mice, P388 leukemia ip, median survival T/C; entry: `O=C(c1ccccc1)C(Cl)C(=O)c1ccccc1`
Result :: 105 % of control

----------
Test system: BDF1 mice, P388 leukemia ip, median survival T/C
procedure-details: NCI In Vivo Anticancer Drug Screen. Data for tumor model P388 Leukemia (intraperitoneal) in B6D2F1 (BDF1) mice
study-conditions: endpoint: median survival time; dose: 400.0 mg/kg/injection; schedule: Q01DX010 (ip); vehicle: saline; higher = longer survival
Inconclusive results and toxic doses are left out.
endpoint: T/C

O=c1ccc2ccccc2o1: 95 % of control
[Mg+2]: 100 % of control

Query :: Report measured T/C on BDF1 mice, P388 leukemia ip, median survival T/C; entry: O=C1CCC(N2C(=O)c3ccccc3C2=O)C(=O)N1 (centres undefined)
Result :: 92 % of control

Query :: Report measured T/C on BDF1 mice, P388 leukemia ip, median survival T/C; entry: OCC(O)C(O)C(O)CO (centres undefined)
Result :: 100 % of control

----------
System: BDF1 mice, P388 leukemia ip, median survival T/C
procedure-details: NCI In Vivo Anticancer Drug Screen. Data for tumor model P388 Leukemia (intraperitoneal) in B6D2F1 (BDF1) mice
study-conditions: endpoint: median survival time; dose: 25.0 mg/kg/injection; schedule: Q01DX009 (ip); vehicle: saline with Tween-80; higher = longer survival
Toxic doses and inconclusive results are not listed.
Below, each entry is listed with its recorded T/C.

COC(=O)CCCc1ccc(OC)c(OC)c1: 100 % of control

Query :: Please list T/C recorded for the molecule `CCn1cnc(-c2ccccc2)c1-c1ccccc1`
Result :: 104 % of control

Query :: Please list T/C recorded for the molecule `CSc1ccc(NC(=O)CCl)cc1`
Result :: 105 % of control

----------
Below, each entry is listed with its recorded T/C.
Tested on: BDF1 mice, P388 leukemia ip, median survival T/C
procedure-details: NCI In Vivo Anticancer Drug Screen. Data for tumor model P388 Leukemia (intraperitoneal) in B6D2F1 (BDF1) mice
study-conditions: endpoint: median survival time; dose: 200.0 mg/kg/injection; schedule: Q01DX009 (ip); vehicle: saline; higher = longer survival
Inconclusive results and toxic doses are left out.

Field: example entries. Status: answers known.
CC(=O)OCC(=O)C1CCC=CC1OC(C)=O (configuration not stated): 104 % of control
CNCCN(C)CCN(C)Cc1ccc(OC)cc1: 104 % of control
CC1(C)OC(=O)CC(=O)O1: 100 % of control
COc1ccc(/C=C/C(=O)c2ccc(OC)c(OC)c2)cc1O: 90 % of control

Query :: Please list T/C recorded for the molecule `O=C1CCS2(CCC(=O)O2)O1`
Result :: 98 % of control

Query :: Please list T/C recorded for the molecule `O=C(O)c1ccccc1Oc1ccccc1C(=O)O`
Result :: 90 % of control

Query :: Please list T/C recorded for the molecule `CN(C)C(=O)NNC(=O)N(C)C`
Result :: 95 % of control

----------
Below, each entry is listed with its recorded T/C.
Tested on: BDF1 mice, P388 leukemia ip, median survival T/C
procedure-details: NCI In Vivo Anticancer Drug Screen. Data for tumor model P388 Leukemia (intraperitoneal) in B6D2F1 (BDF1) mice
study-conditions: endpoint: median survival time; dose: 12.5 mg/kg/injection; schedule: Q01DX009 (ip); vehicle: water; higher = longer survival
Inconclusive results and toxic doses are left out.

Query :: Please list T/C recorded for the compound COc1ccc(C2C=C(C)Oc3c2c(=O)oc2ccccc32)cc1OC (centres undefined)
Result :: 91 % of control

Query :: Please list T/C recorded for the compound `O=C1N2CCOC2=NC1(c1ccccc1)c1ccccc1`
Result :: 94 % of control

Query :: Please list T/C recorded for the compound `F`
Result :: 100 % of control

Query :: Please list T/C recorded for the compound CC(=O)C(C)[P+](c1ccccc1)(c1ccccc1)c1ccccc1 (centres undefined)
Result :: 96 % of control
